Could you please report measured inhibition at 1 µM for the items listed next?
Target: MC3-R (Homo sapiens)
Construct: expressed in transfected cells; host or cells: HEK-293
Sequence (P41968 whole entry): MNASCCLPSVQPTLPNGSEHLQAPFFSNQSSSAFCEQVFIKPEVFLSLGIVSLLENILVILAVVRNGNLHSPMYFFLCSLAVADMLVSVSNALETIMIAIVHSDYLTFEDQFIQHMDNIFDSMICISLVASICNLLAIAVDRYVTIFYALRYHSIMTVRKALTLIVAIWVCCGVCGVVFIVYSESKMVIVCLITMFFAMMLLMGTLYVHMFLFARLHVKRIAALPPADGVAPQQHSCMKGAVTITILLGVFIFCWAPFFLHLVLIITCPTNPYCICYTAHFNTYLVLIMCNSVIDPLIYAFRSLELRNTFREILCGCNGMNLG
Assay: Competitive inhibition binding assay using [I125]-NDP-α-MSH, HEK-293 membranes, recombinant hMC3-R
Details: 1 μM compound
Experimental: A competitive inhibition binding assay was performed using membrane homogenates prepared from HEK-293 cells that express recombinant hMC4-R, hMC3-R, or hMC5-R, and from B-16 mouse melanoma cells (containing endogenous MC1-R). […] Filters were dried and counted in a gamma counter for bound radioactivity. […] Maximal specific binding (100%) was defined as the difference in radioactivity (cpm) bound to cell membranes in the absence and presence of 1 μM NDP-α-MSH. […]
Numbers only, in %.

Exercise: Which inhibition at 1 µM value belongs to Cc1ccc(C[C@@H](N)C(=O)N2C[C@@H](C)N(C(=O)[C@H](N)Cc3ccc(C)cc3C)C[C@@H]2CCCNCCN)c(C)c1 ?
Key: 57

// for each compound below, give its inhibition at 1 µM
1. Cc1ccc(C[C@@H](N)CN2C[C@@H](C)N(C(=O)Cc3ccc4ccccc4c3)C[C@@H]2CCCNC2CCNC2)c(C)c1 (stereo partly drawn)
2. Cc1ccc(C[C@@H](N)CN2C[C@@H](C)N(C(=O)Cc3ccc4ccccc4c3)C[C@@H]2CCCN2CCNCC2)c(C)c1

Key:
1. 75
2. 43

Hey, just so you know, these numbers are from patent US7968548B2.
